# System: GBM8 glioblastoma patient-derived cell culture
# method summary: In vitro drug screening, cell viability by CellTiter GLO 2.0 after 5 days
# Type: cell-based
# conditions: Homo sapiens, 120 h, 5 days incubation
property measured: IC50 (nM)
Answers are plain numbers, in nM.

Request: Which IC50 reading was recorded for the compound COC(=O)C[C@](O)(CCCC(C)(C)O)C(=O)O[C@@H]1C(OC)=C[C@]23CCCN2CCc2cc4c(cc2[C@H]13)OCO4 [OMA, Omacetaxine mepesuccinate] ?
Response: 7.2

* * *

# method summary: Pharmacokinetics of omacetaxine in orthotopic glioblastoma PDX and naïve NOD/SCID mice (LC-MS/MS of plasma, brain, liver)
# Format: in vivo, mouse
# conditions: female, NOD/SCID, mouse, plasma, sc, 1.5 mg/kg, GS832-PDX, 120 min, single s.c. dose 1.5 mg/kg, n = 5 (Table 2); read-out: [Plasma] ± SD
property measured: concentration at 120 min (ng/mL)
Answers are plain numbers, in ng/mL.

Request: // lookup concentration at 120 min for COC(=O)C[C@](O)(CCCC(C)(C)O)C(=O)O[C@@H]1C(OC)=C[C@]23CCCN2CCc2cc4c(cc2[C@H]13)OCO4 [OMA, Omacetaxine mepesuccinate]
Response: 55.6
